MIC reference
# Tested on: 100 A. baumannii strains (50 MDR, 50 non-MDR)
# measurement notes: MIC broth microdilution at IHMA Europe, panel of 100 strains
# Type: cell-based
# assay conditions: Acinetobacter baumannii, A. baumannii IHMA 2034657, Tunisia 2019, Non-MDR; read-out: MIC
The reply should be a number in µg/mL, with the unit left off.

Below: 2 compounds and their reported MIC.
* C[C@@H](O)[C@H]1C(=O)N2C(C(=O)O)=C(S[C@@H]3CN[C@H](C(=O)N(C)C)C3)[C@H](C)[C@H]12 | 0.25
* Cc1[nH]c(C(=O)Nc2nc3c(N4[C@@H]5CC[C@H]4COC5)cc(C(=O)O)cc3s2)c(Cl)c1Cl | 4

Query :: Entry `CN(C)c1cc(NC(=O)CNC(C)(C)C)c(O)c2c1C[C@H]1C[C@H]3[C@H](N(C)C)C(O)=C(C(N)=O)C(=O)[C@@]3(O)C(O)=C1C2=O` : reported MIC = ?
Result :: 0.25

Query :: Name the reported MIC value associated with the compound CO/N=C(\C(=O)N[C@@H]1C(=O)N2C(C(=O)[O-])=C(C[N+]3(C)CCCC3)CS[C@H]12)c1csc(N)n1 [Cefepime, cefepime]
Result :: 1

---

# Tested on: 100 A. baumannii strains (50 MDR, 50 non-MDR)
# measurement notes: MIC broth microdilution at IHMA Europe, panel of 100 strains
# Type: cell-based
# assay conditions: Acinetobacter baumannii, A. baumannii IHMA 1999178, Belgium 2019, Non-MDR; read-out: MIC
quantity: MIC (µg/mL)
Lab book: enter the figure in µg/mL, no units written.

* Cc1[nH]c(C(=O)Nc2nc3c(N4[C@@H]5CC[C@H]4COC5)cc(C(=O)O)cc3s2)c(Cl)c1Cl | 2
* CN(C)c1cc(NC(=O)CNC(C)(C)C)c(O)c2c1C[C@H]1C[C@H]3[C@H](N(C)C)C(O)=C(C(N)=O)C(=O)[C@@]3(O)C(O)=C1C2=O | 0.25
* C[C@@H](O)[C@H]1C(=O)N2C(C(=O)O)=C(S[C@@H]3CN[C@H](C(=O)N(C)C)C3)[C@H](C)[C@H]12 | 0.25

// switching to the query compound
Query :: Field request: MIC | item: CO/N=C(\C(=O)N[C@@H]1C(=O)N2C(C(=O)[O-])=C(C[N+]3(C)CCCC3)CS[C@H]12)c1csc(N)n1 [Cefepime, cefepime]
Result :: 1

---

# MIC per record follows
# System: 100 A. baumannii strains (50 MDR, 50 non-MDR)
# measurement notes: MIC broth microdilution at IHMA Europe, panel of 100 strains
# Assay type: cell-based
# assay conditions: Acinetobacter baumannii, A. baumannii IHMA 1986678, Turkey 2019, Non-MDR; read-out: MIC
Use µg/mL as the unit, but write only the number.

* CN(C)c1cc(NC(=O)CNC(C)(C)C)c(O)c2c1C[C@H]1C[C@H]3[C@H](N(C)C)C(O)=C(C(N)=O)C(=O)[C@@]3(O)C(O)=C1C2=O | 0.5

Query :: # get_value(readout='MIC', item= `C[C@@H](O)[C@H]1C(=O)N2C(C(=O)O)=C(S[C@@H]3CN[C@H](C(=O)N(C)C)C3)[C@H](C)[C@H]12` )
Result :: 0.25

Query :: Which MIC reading was recorded for the compound `Cc1[nH]c(C(=O)Nc2nc3c(N4[C@@H]5CC[C@H]4COC5)cc(C(=O)O)cc3s2)c(Cl)c1Cl` ?
Result :: 4

Query :: Quick check: MIC of `C[C@@H](O)[C@H]1C(=O)N2C(C(=O)O)=C(SCCNC=N)C[C@H]12` ?
Result :: 0.5

---

# measured on: DNA gyrase from E. coli (Escherichia coli, UniProt P0AES6)
# Construct: purchased Inspiralis
# measurement notes: supercoiling HTS plate assay
# Assay type: biochemical
# assay conditions: IC50
quantity: IC50 (nM)
The figure you give is taken to be in nM; do not add the unit.

Query :: Return reported IC50; argument: `Cc1[nH]c(C(=O)Nc2nc3c(N4CCOC[C@@H]4C)cc(C(=O)O)cc3s2)c(Cl)c1Cl`
Result :: 18

---

# System: Neisseria gonorrhoeae (n = 12)
# measurement notes: MIC broth microdilution at IHMA Europe
# Type: cell-based
# assay conditions: Neisseria gonorrhoeae, isolate IHMA 1130989; read-out: MIC
// reported MIC per item
Write down the numeric answer in mg/L and omit the unit.

// below: answered compounds
• O=C(O)c1cn(C2CC2)c2cc(N3CCNCC3)c(F)cc2c1=O = 4
• Cc1[nH]c(C(=O)Nc2nc3c(N4[C@@H]5CC[C@H]4COC5)cc(C(=O)O)cc3s2)c(Cl)c1Cl = 0.06
• Cc1[nH]c(C(=O)Nc2nc3c(N4CCOCC4)cc(C(=O)O)cc3s2)c(Cl)c1Cl = 0.06

--- query ---
Query :: Entry under review: `COCC1=C(C(=O)O)N2C(=O)[C@@H](NC(=O)/C(=N\OC)c3csc(N)n3)[C@H]2SC1` . Reported MIC?
Result :: 0.015

---

// reported MIC for each item listed
# Tested on: 100 A. baumannii strains (50 MDR, 50 non-MDR)
# measurement notes: MIC broth microdilution at IHMA Europe, panel of 100 strains
# Type: cell-based
# assay conditions: Acinetobacter baumannii, A. baumannii IHMA 2183849, Argentina 2020, Non-MDR; read-out: MIC
Record the value in µg/mL, omitting the unit from your answer.

Please review the following examples before continuing.
• CN(C)c1cc(NC(=O)CNC(C)(C)C)c(O)c2c1C[C@H]1C[C@H]3[C@H](N(C)C)C(O)=C(C(N)=O)C(=O)[C@@]3(O)C(O)=C1C2=O = 0.25
• Cc1[nH]c(C(=O)Nc2nc3c(N4[C@@H]5CC[C@H]4COC5)cc(C(=O)O)cc3s2)c(Cl)c1Cl = 2
• C[C@@H](O)[C@H]1C(=O)N2C(C(=O)O)=C(S[C@@H]3CN[C@H](C(=O)N(C)C)C3)[C@H](C)[C@H]12 = 0.12

Query :: Name the recorded MIC for CO/N=C(\C(=O)N[C@@H]1C(=O)N2C(C(=O)[O-])=C(C[N+]3(C)CCCC3)CS[C@H]12)c1csc(N)n1 [Cefepime, cefepime] .
Result :: 1

---

# System: 100 A. baumannii strains (50 MDR, 50 non-MDR)
# measurement notes: MIC broth microdilution at IHMA Europe, panel of 100 strains
# Assay type: cell-based
# assay conditions: Acinetobacter baumannii, A. baumannii IHMA 2020360, Croatia 2019, MDR; read-out: MIC
Measured MIC, listed per entry for reference.
Numeric only. Scale: mg/L

• Cc1[nH]c(C(=O)Nc2nc3c(N4[C@@H]5CC[C@H]4COC5)cc(C(=O)O)cc3s2)c(Cl)c1Cl = 2
• CN(C)c1cc(NC(=O)CNC(C)(C)C)c(O)c2c1C[C@H]1C[C@H]3[C@H](N(C)C)C(O)=C(C(N)=O)C(=O)[C@@]3(O)C(O)=C1C2=O = 4

Query :: Request the reported MIC associated with CO/N=C(\C(=O)N[C@@H]1C(=O)N2C(C(=O)[O-])=C(C[N+]3(C)CCCC3)CS[C@H]12)c1csc(N)n1 [Cefepime, cefepime]
Result :: 32

---

# measurement notes: formulation solubility study
# Assay type: physicochemical
# assay conditions: 100 mM carbonate buffer, pH 9.0, 20% hydroxypropyl β-cyclodextrin
quantity: solubility (mg/mL)
Please respond with the number in mg/mL and leave the unit unwritten.

Query :: Fill in: solubility of `Cc1[nH]c(C(=O)Nc2nc3c(N4CCOCC4)cc(C(=O)O)cc3s2)c(Cl)c1Cl` is ___
Result :: 13.2

---

# measured on: P. aeruginosa DNA gyrase (Pseudomonas aeruginosa)
# Sequence (Q9I7C2 whole entry): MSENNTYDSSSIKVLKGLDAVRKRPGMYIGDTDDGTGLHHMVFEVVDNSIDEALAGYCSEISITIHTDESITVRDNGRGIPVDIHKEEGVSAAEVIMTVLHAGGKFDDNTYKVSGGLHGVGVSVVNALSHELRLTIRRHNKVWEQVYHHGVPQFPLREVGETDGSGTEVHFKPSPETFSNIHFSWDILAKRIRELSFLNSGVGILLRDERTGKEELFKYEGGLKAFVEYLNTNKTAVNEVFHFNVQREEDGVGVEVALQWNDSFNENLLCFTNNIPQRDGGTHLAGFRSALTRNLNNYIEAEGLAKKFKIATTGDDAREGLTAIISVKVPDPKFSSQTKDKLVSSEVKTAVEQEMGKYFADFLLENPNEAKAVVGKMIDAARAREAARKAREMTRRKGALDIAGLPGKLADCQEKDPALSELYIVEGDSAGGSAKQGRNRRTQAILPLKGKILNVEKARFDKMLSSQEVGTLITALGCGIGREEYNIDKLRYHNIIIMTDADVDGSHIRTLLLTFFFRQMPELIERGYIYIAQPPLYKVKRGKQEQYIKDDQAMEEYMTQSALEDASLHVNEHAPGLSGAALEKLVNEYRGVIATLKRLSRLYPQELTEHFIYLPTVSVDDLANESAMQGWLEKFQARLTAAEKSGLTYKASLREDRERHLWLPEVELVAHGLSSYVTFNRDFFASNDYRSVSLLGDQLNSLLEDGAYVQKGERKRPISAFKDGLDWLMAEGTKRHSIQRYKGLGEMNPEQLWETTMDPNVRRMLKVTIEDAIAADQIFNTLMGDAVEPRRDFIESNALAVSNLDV
# Sequence (P48372 whole entry, further chain): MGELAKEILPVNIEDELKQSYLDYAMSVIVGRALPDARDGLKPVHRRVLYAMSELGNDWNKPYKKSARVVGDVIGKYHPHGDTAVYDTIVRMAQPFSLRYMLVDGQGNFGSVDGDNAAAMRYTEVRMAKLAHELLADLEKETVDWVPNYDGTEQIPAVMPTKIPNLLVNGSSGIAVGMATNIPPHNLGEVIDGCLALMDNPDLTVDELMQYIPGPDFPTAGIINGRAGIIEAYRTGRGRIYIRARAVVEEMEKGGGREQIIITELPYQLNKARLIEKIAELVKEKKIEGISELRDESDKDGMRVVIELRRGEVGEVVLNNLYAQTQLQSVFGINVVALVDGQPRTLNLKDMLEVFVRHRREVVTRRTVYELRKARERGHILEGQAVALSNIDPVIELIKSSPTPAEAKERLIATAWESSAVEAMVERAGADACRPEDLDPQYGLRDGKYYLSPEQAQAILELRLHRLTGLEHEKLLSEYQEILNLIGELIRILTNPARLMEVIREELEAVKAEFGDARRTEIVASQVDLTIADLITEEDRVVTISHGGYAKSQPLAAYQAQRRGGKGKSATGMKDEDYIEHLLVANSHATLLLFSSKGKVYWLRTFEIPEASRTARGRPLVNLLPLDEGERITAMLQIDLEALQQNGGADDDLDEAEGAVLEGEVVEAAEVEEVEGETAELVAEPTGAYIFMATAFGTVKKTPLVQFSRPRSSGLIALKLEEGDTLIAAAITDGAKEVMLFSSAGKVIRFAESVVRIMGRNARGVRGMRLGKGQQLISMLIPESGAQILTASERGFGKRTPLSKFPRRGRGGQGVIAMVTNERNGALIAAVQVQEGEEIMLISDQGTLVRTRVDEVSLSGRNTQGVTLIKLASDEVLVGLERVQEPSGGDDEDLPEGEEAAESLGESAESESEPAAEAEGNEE
# measurement notes: supercoiling HTS assay
pIC50: −log10 of the molar value.
quantity: pIC50

Query :: Given the compound Cc1[nH]c(C(=O)Nc2nc3c(N4CCOCC4)cc(C(=O)O)cc3s2)c(Cl)c1Cl [7a] , what is its reported pIC50?
Result :: > 8.00

---

# measurement notes: in vitro
# assay conditions: mouse, microsomes, pH 7.4
quantity: half-life at 1 h, 1 µM (min)
Provide only the numeric value, understood in min.

Query :: Form field: reported half-life at 1 h, 1 µM of `Cc1[nH]c(C(=O)Nc2nc3c(N4CCOCC4)cc(C(=O)O)cc3s2)c(Cl)c1Cl`
Result :: 87

---

# measured on: topo IV from E. coli (Escherichia coli, UniProt P20083)
# Construct: purchased Inspiralis
# Sequence (P0AFI2 whole entry): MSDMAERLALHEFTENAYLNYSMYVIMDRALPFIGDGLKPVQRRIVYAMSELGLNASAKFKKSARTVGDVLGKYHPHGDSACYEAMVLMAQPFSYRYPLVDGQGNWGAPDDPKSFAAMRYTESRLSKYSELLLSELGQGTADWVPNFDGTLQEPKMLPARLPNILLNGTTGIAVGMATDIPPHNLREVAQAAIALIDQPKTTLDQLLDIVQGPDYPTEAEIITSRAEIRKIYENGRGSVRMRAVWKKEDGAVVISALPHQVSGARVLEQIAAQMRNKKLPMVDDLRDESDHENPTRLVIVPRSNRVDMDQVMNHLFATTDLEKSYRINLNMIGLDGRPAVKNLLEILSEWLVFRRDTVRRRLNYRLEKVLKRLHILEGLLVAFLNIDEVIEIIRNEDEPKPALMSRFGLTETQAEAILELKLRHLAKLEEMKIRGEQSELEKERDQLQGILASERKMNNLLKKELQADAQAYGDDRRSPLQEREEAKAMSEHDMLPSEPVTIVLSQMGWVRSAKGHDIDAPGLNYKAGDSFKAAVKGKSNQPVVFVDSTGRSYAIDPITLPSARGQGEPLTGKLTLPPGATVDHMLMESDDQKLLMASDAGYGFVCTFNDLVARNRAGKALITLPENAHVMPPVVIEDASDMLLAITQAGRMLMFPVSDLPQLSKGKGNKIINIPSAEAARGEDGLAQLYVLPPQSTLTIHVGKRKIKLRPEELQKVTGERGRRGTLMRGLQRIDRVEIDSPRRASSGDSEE
# Sequence (P20083 whole entry): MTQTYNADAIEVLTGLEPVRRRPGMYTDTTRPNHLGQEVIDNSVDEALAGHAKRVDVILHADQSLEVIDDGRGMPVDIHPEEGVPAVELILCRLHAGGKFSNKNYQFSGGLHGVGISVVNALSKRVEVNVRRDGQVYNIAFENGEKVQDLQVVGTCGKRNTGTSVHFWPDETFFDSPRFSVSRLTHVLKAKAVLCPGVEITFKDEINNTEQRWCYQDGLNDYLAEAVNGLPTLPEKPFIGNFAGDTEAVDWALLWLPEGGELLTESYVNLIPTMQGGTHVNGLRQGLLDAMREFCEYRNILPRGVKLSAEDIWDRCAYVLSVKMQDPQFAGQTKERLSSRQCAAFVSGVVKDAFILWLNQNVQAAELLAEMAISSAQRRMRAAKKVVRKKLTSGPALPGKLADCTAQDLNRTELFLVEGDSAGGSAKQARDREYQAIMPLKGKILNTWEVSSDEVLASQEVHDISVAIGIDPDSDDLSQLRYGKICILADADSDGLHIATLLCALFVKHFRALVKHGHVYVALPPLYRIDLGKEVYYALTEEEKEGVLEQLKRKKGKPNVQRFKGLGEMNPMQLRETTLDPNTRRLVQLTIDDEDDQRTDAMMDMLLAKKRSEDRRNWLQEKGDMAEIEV
# measurement notes: relaxation HTS plate assay
# Assay type: biochemical
# assay conditions: read-out: IC50
quantity: IC50 (nM)
Value expressed in nM; do not type the unit.

For orientation, consider the following solved cases.
* Cc1[nH]c(C(=O)Nc2nc3c(N4CCOC(C)C4)cc(C(=O)O)cc3s2)c(Cl)c1Cl (stereo not shown) | 91
* Cc1[nH]c(C(=O)Nc2nc3c(N4CC(C)OC(C)C4)cc(C(=O)O)cc3s2)c(Cl)c1Cl (stereo not shown) | 82
* Cc1[nH]c(C(=O)Nc2nc3c(N4CCOCC4C)cc(C(=O)O)cc3s2)c(Cl)c1Cl (stereo not shown) | 78

Query :: Query (compound): `Cc1[nH]c(C(=O)Nc2nc3c(N4CCOC[C@H]4C)cc(C(=O)O)cc3s2)c(Cl)c1Cl` ; field requested: IC50
Result :: 60

Cited source: paper PMC10041525
